Assay: chemical genetic growth profiling, strain panel (AID 1159580);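 note: tested at 20 µM; growth read once vehicle control cultures reached saturation at 30 °C; 1 = growth at the plate median or of vehicle wells; lower values mean less growth of the strain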
Conditions: S. cerevisiae deletion strains, growth OD, locus YLR102C, strain apc9, hits give low values
In all, about 5,500 compounds went through this assay and about 2,000 (36%) were called active. Inconclusive results (about 18%) are left out. Some of the results follow.
Property name: normalized growth

[[record]]
molecule = "CC1C(=O)OC2C1CCC1(C)C=CC(=O)C3(C)OC213 (stereo not drawn)"
observed = 1.01

[[record]]
molecule = "COC(=O)C[C@H]1C(C)(C)C(=O)[C@@H]2CC3C4=CC(=O)O[C@@H](c5ccoc5)[C@]4(C)CCC3[C@@]1(C)C2=O (stereo partly drawn)"
observed = 0.979

[[record]]
molecule = "CC(=O)O[C@@H]1CC[C@@]2(C)C(CC[C@]3(C)C2CC=C2C4CC(C)(C)CC[C@]4(C(=O)O)CC[C@]23C)C1(C)C (stereo partly drawn)"
observed = 0.981

[[record]]
molecule = "CCOC(=O)OC(C)OC(=O)C1N2C(=O)C(NC(=O)[C@H](N)c3ccccc3)C2SC1(C)C (stereo partly drawn)"
observed = 0.987

[[record]]
molecule = "CC(=O)O[C@H]1CC[C@@]2(C)C(CC[C@]3(C)C2C(=O)C=C2C4[C@@H](C)[C@H](C)CC[C@]4(C(=O)O)CC[C@]23C)C1(C)C (stereo partly drawn)"
observed = 0.99

[[record]]
molecule = "C[C@@H]1CC[C@H]2[C@@H](C)C(=O)O[C@@H]3O[C@@]4(C)CC[C@@H]1[C@]32OO4"
observed = 0.94

[[record]]
molecule = "CC1(C)CC[C@]2(C(=O)O)CC[C@]3(C)C(=CCC4[C@@]5(C)CC[C@H](O)[C@@](C)(CO)C5CC[C@]43C)C2C1 (stereo partly drawn)"
observed = 0.991

[[record]]
molecule = "NC(N)=N/N=C/c1c(Cl)cccc1Cl"
observed = 1.01


====

Assay: chemical genetic growth profiling, strain panel (AID 1159580);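 note: tested at 20 µM; growth read once vehicle control cultures reached saturation at 30 °C; 1 = growth at the plate median or of vehicle wells; lower values mean less growth of the strain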
Conditions: S. cerevisiae deletion strains, growth OD, locus YPR163C, strain tif3, hits give low values
Out of some 5,500 compounds screened, about 2,000 (36%) were called active. Roughly 18% stayed inconclusive and do not appear here. The list shows a part of the results.
Measured normalized growth, listed per entry for reference.
Property name: normalized growth

[[record]]
compound = "CC(C)=CCCC1(C)C=Cc2c(O)c3c(c(CC=C(C)C)c2O1)OC12C(=CC4CC1C(C)(C)OC2(C/C=C(/C)C(=O)O)C4=O)C3=O (stereo not drawn)"
observed = "0.9 (active)"

[[record]]
compound = "Nc1ccc(S(=O)(=O)Nc2cnc3ccccc3n2)cc1"
observed = "0.989 (inactive)"

[[record]]
compound = "N=C(N)c1ccc(OCCCCCOc2ccc(C(=N)N)cc2)cc1"
observed = "0.901 (active)"

[[record]]
compound = "O=C1c2c(O)cccc2Cc2cccc(O)c21"
observed = "0.997 (inactive)"

[[record]]
compound = "CC(C)=CCCC1(C)C=Cc2c(O)c3c(c(CC=C(C)C)c2O1)OC12C(=CC4CC1C(C)(C)OC2(C/C=C(\\C)C(N)=O)C4=O)C3=O (stereo not drawn)"
observed = "0.982 (inactive)"

[[record]]
compound = "Fc1ccc(C(c2ccccc2)(c2ccccc2F)n2ccnc2)cc1 (stereo not drawn)"
observed = "0.0819 (active)"

[[record]]
compound = "COC(=O)/C(C)=C\\CC12OC(C)(C)C3CC(C=C4C(=O)c5c(O)c6c(c(CCC(C)(C)Cl)c5OC431)OC1(C)CCC(=C(C)C)C6C1)C2=O (stereo not drawn)"
observed = "1 (inactive)"

[[record]]
compound = "CC(C)=CCCC1(C)C=Cc2c(O)c3c(c(CC=C(C)C)c2O1)OC12C(=CCCC1C(C)(C)O[C@@]2(C/C=C(\\C)C(=O)O)C(=O)O)C3=O (stereo partly drawn)"
observed = "0.524 (active)"

